Exercise: state measured Th-227 in muscle for each of the compounds provided.
- TEST_NAME: Biodistribution study in LNCaP tumor-bearing mice (Th227 counted in organs)
- Format: in vivo, SCID mice
- SETUP_CONDITIONS: 4 hr; 1500 kBq/kg
Numbers only, in % ID Th-227/g organ.

In the examples that follow, each entry is paired with its recorded Th-227 in muscle.
compound="O=C([O-])CN1CCN(CC(=O)[O-])CCN(CC(=O)NCC2CCC(C(=O)NC(Cc3ccc4ccccc4c3)C(=O)NCCCCC(NC(=O)NC(CCC(=O)O)C(=O)O)C(=O)O)CC2)CCN(CC(=O)[O-])CC1.[227Th+4] [Example 1-B-D-227Th]" measured_endpoint="Th-227 in muscle" value_units="% ID Th-227/g organ" reported_value=0.05
compound="O=C([O-])CN1CCN(CC(=O)[O-])CCN(CC(=O)NCC2CCC(C(=O)NC(Cc3ccc4ccccc4c3)C(=O)NCCCCC(NC(=O)NC(CCC(=O)O)C(=O)O)C(=O)O)CC2)CCN(CC(=O)[O-])CC1.[227Th+4] (stereo not shown) [Example 1-B-227Th]" measured_endpoint="Th-227 in muscle" value_units="% ID Th-227/g organ" reported_value=0.37
compound="O=C([O-])CN1CCN(CC(=O)[O-])CCN(CC(=O)NCc2ccc(C(=O)N[C@@H](Cc3ccc4ccccc4n3)C(=O)NCCCC[C@H](NC(=O)N[C@@H](CCC(=O)O)C(=O)O)C(=O)O)nc2)CCN(CC(=O)[O-])CC1.[227Th+4] [Example 34-B-227Th]" measured_endpoint="Th-227 in muscle" value_units="% ID Th-227/g organ" reported_value=0.41

We now examine a further compound.
Prompt line: Which measured Th-227 in muscle value corresponds to Cc1cc(C(=O)NCCN(CCCN(CCNC(=O)c2cc(C)n(CC(=O)O)c(=O)c2[O-])CCNC(=O)c2cc(C)n(CC(=O)NCC3CCC(C(=O)NC(Cc4cnc5ccccc5c4)C(=O)NCCCCC(NC(=O)NC(CCC(=O)O)C(=O)O)C(=O)O)CC3)c(=O)c2[O-])CCNC(=O)c2cc(C)n(CC(=O)NCC3CCC(C(=O)NC(Cc4cnc5ccccc5c4)C(=O)NCCCCC(NC(=O)NC(CCC(=O)O)C(=O)O)C(=O)O)CC3)c(=O)c2[O-])c([O-])c(=O)n1CC(=O)O.[227Th+4] (stereo not shown) [Example 22-C dimer-227Th] ?
Response line: 0.05

---

- SYSTEM_NAME: PSMA-expressing LNCaP cells (Homo sapiens, UniProt Q04609)
- Construct: PSMA-expressing LNCaP cells; endogenous in cells; host or cells: LNCaP
- Sequence (Q04609 whole entry): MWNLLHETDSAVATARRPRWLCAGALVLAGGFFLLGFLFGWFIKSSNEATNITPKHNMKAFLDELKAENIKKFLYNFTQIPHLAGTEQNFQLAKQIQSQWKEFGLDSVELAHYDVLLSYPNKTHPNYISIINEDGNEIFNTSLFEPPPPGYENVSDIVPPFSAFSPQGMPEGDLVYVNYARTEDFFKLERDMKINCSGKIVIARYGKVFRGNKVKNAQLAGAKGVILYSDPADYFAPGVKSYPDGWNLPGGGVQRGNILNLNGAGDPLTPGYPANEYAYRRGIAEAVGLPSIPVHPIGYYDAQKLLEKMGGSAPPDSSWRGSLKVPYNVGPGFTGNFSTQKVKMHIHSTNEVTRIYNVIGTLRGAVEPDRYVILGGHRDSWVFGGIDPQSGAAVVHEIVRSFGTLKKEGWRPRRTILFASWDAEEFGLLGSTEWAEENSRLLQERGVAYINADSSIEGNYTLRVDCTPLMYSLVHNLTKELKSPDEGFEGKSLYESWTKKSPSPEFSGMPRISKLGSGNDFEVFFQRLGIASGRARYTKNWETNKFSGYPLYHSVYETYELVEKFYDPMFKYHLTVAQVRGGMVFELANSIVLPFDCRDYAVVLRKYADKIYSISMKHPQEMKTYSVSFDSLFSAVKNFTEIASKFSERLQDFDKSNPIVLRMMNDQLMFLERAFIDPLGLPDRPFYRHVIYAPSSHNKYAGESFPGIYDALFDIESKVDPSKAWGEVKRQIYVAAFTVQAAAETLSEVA
- TEST_NAME: Binding competition assay against 3H-PSMA-617 on LNCaP cells
- SETUP_CONDITIONS: LNCaP cells; 10 nM 3H-PSMA-617; competing non-radiolabeled compound 10 nM; 2 h at 37° C.; triplicates
Please provide measured remaining activity at 0.01 µM for the entries that follow.
Give bare numbers, in %.

compound=NC[C@H]1CC[C@H](C(=O)N[C@@H](Cc2ccc3ccccc3c2Br)C(=O)NCCCC[C@H](NC(=O)N[C@@H](CCC(=O)O)C(=O)O)C(=O)O)CC1 measured_endpoint="remaining activity at 0.01 µM" reported_value=187
compound="O=C(O)CC[C@H](NC(=O)N[C@@H](CCCCNC(=O)[C@H](Cc1ccc2ccccc2c1)NC(=O)[C@H]1CC[C@H](CNC(=O)CN2CCN(CC(=O)O)CCN(CC(=O)O)CCN(CC(=O)O)CC2)CC1)C(=O)O)C(=O)O [Example 1-B, reference compound]" measured_endpoint="remaining activity at 0.01 µM" reported_value=66
compound=O=C(O)CC[C@H](NC(=O)N[C@@H](CCCCNC(=O)[C@H](Cc1ccc2ccccc2c1)NC(=O)Cc1ccc(NC(=O)CN2CCN(CC(=O)O)CCN(CC(=O)O)CCN(CC(=O)O)CC2)cc1)C(=O)O)C(=O)O measured_endpoint="remaining activity at 0.01 µM" reported_value=66
compound="NC[C@H]1CC[C@H](C(=O)N[C@@H](Cc2ccc(-c3ccccc3)cc2)C(=O)NCCCC[C@H](NC(=O)N[C@@H](CCC(=O)O)C(=O)O)C(=O)O)CC1 [Example 11a-A]" measured_endpoint="remaining activity at 0.01 µM" reported_value=110

// below: remaining activity at 0.01 µM requested for another compound
Prompt line: I'd like to know its remaining activity at 0.01 µM. The compound in question is "O=C(O)CC[C@H](NC(=O)N[C@@H](CCCCNC(=O)[C@H](Cc1ccc2ccccc2c1)NC(=O)c1ccc(CNC(=O)CN2CCN(CC(=O)O)CCN(CC(=O)O)CCN(CC(=O)O)CC2)nc1)C(=O)O)C(=O)O"
Response line: 53
